This section presents compounds with their documented half-life values.
- method.notes: Half life in po dosed rat
- Type: ADME, organism-based
- test.parameters: in vivo
# value in h; strip the unit string

| mol.smiles | half-life (h) |
| --- | --- |
| CCN1CCC(C(=O)NO)(S(=O)(=O)c2ccc(Oc3ccc(Cl)cc3)cc2)CC1 | 1.19 |

Notebook: `O=C(NO)C1(S(=O)(=O)c2ccc(Oc3ccc(Cl)cc3)cc2)CCN(C2CC2)CC1` , half-life read as 0.74

Notebook: `O=C(NO)C1(S(=O)(=O)c2ccc(Oc3ccc(Cl)cc3)cc2)CCNCC1` , half-life read as 1.8

Notebook: `CC(=O)N1CCC(C(=O)NO)(S(=O)(=O)c2ccc(Oc3ccc(Cl)cc3)cc2)CC1` , half-life read as 0.86

Notebook: `CN1CCC(C(=O)NO)(S(=O)(=O)c2ccc(Oc3ccc(Cl)cc3)cc2)CC1` , half-life read as 1.25

---

This section presents compounds with their documented half-life values.
- method.notes: Half life in rat at 100 mg/kg, po
- Type: ADME, organism-based
- Set-up: dose 100 mg/kg, route oral
- test.parameters: in vivo

| compound | half-life |
| --- | --- |
| CC(C)Cc1ccc(CC(=O)N(C)O)cc1 | < 18 min |

Notebook: `CC(C)Cc1ccc(CCC(=O)N(C)O)cc1` , half-life read as < 18 min

Notebook: `CC(C)Cc1ccc(C(=O)N(C)O)cc1` , half-life read as 18 min

Notebook: CC(C)Cc1ccc(C(C)C(=O)N(C)O)cc1 (stereo unspecified) , half-life read as > 18 min

Notebook: CC(C)Cc1ccc(C(C)C(=O)NO)cc1 (stereo unspecified) [IBUPROXAM] , half-life read as 18 min

Notebook: `CC(C)Cc1ccc(/C=C/C(=O)N(C)O)cc1` , half-life read as < 18 min

---

- method.notes: Metabolic stability in Sprague-Dawley rat plasma at 10 uM by LC-MS/MS analysis
- Type: ADME, cell-free
- test.parameters: Sprague-Dawley
half-life at 10 µM below 4 h gives Condition not met; half-life at 10 µM at or above it gives Condition met.

Sample answers from the record:
| compound | cat |
| --- | --- |
| CCOC(=O)[C@H](CCc1ccccc1)N[C@@H](C)C(=O)N1CCC[C@H]1C(=O)O | Condition not met |
| O=C(/C=C/c1ccccc1)NO | Condition met |

Consider now this further compound.
Would you say `O=C(CC(=O)NCc1ccc(F)cc1)NO` shows half-life at 10 µM at minimum 4 h?
Condition met

---

- method.notes: Metabolic stability in Sprague-Dawley rat plasma at 10 uM by LC-MS/MS analysis in presence of esterase inhibitor PMSF
- Type: ADME, cell-free
- test.parameters: Sprague-Dawley, with PMSF (esterase inhibitor)
observed.property: half-life at 10 µM

Notebook: `CCOC(=O)[C@H](CCc1ccccc1)N[C@@H](C)C(=O)N1CCC[C@H]1C(=O)O` , half-life at 10 µM read as > 24 h

---

This section presents molecules with their documented half-life values.
- Organism: Homo sapiens
- method.notes: Metabolic stability in human plasma by LC-MS/MS analysis

Notebook: `O=C(NO)/C(=C/c1ccccc1)C(=O)NCc1ccc(F)cc1` , half-life read as > 24 h

Notebook: O=C(NO)C(Cc1ccccc1)C(=O)NCc1ccc(F)cc1 (stereo not drawn) , half-life read as > 24 h

Notebook: `O=C(NO)/C(=C\c1ccccc1)C(=O)NCc1ccc(F)cc1` , half-life read as > 24 h

---

- method.notes: Stability in potassium phosphate buffer at pH 7.4
- Format: physicochemical
observed.property: Stability

As a guide, the following entries are already answered.
| molecule | result |
| --- | --- |
| O=C(CC(=O)NCc1ccc(F)cc1)NO | Stable |
| O=C(CCOc1ccccc1)NO | Stable |
| O=C(CCc1ccccc1)NO | Stable |
| O=C(NO)c1ccc(C#CC2CC2)cc1 | Stable |
| O=C(Cc1ccc(F)cc1)NC(Cc1ccccc1)C(=O)NO (stereo unspecified) | Stable |

Notebook: CC(C(=O)NO)C(=O)NCc1ccc(F)cc1 (stereo unspecified) , Stability read as Stable

Notebook: `O=C(/C=C/c1ccccc1)NO` , Stability read as Stable

Notebook: O=C(CCCc1ccccc1)NO [PHENYLBUTYRYLHYDROXAMIC ACID] , Stability read as Stable

Notebook: `O=C(NO)C1(C(=O)NCc2ccc(F)cc2)CC1` , Stability read as Stable

Notebook: CN(O)C(=O)C(Cc1ccccc1)C(=O)NCc1ccc(F)cc1 (stereo unspecified) , Stability read as Stable

Notebook: O=C(NO)C(Cc1ccccc1)C(=O)NCc1ccc(F)cc1 (stereo unspecified) , Stability read as Stable

Notebook: CC1(C)ON=C(C(Cc2ccccc2)C(=O)NCc2ccc(F)cc2)O1 (stereo unspecified) , Stability read as Stable

Notebook: `O=C(NO)/C(=C\c1ccccc1)C(=O)NCc1ccc(F)cc1` , Stability read as Stable

Notebook: `CC(C)(C)OC(=O)N[C@H](Cc1ccccc1)C(=O)NO` , Stability read as Stable

---

- method.notes: Metabolic stability in Sprague-Dawley rat plasma at 10 uM by LC-MS/MS analysis
- Type: ADME, cell-free
- test.parameters: Sprague-Dawley
observed.property: log10 of half-life at 10 µM (log10 of the value in h)
The base-10 logarithm of half-life at 10 µM, taken with half-life at 10 µM in h, is what appears here.

| molecule | log10 of half-life at 10 µM |
| --- | --- |
| O=C(CCCCCCC(=O)Nc1ccccc1)NO | 0.99 |

Notebook: `CC(C)(C(=O)NO)C(=O)NCc1ccc(F)cc1` , log10 of half-life at 10 µM read as 1.30

Notebook: `O=C(NO)C1(C(=O)NCc2ccc(F)cc2)CC1` , log10 of half-life at 10 µM read as 1.35

---

- method.notes: Metabolic stability in Sprague-Dawley rat plasma at 10 uM by LC-MS/MS analysis
- Format: ADME, cell-free
- test.parameters: Sprague-Dawley
observed.property: half-life at 10 µM (h)
# value in h; strip the unit string

| compound | half-life at 10 µM (h) |
| --- | --- |
| O=C(NO)/C(=C\c1ccccc1)C(=O)NCc1ccc(F)cc1 | 22 |

Notebook: `O=C(NO)/C(=C/c1ccccc1)C(=O)NCc1ccc(F)cc1` , half-life at 10 µM read as 4.1

Notebook: CC1(C)ON=C(C(Cc2ccccc2)C(=O)NCc2ccc(F)cc2)O1 (stereo unspecified) , half-life at 10 µM read as 1

Notebook: O=C(NO)C(Cc1ccccc1)C(=O)NCc1ccc(F)cc1 (stereo unspecified) , half-life at 10 µM read as 0.8
